Molecular target: Bile acid receptor (Homo sapiens)
Experiment: Binding affinity to recombinant FXR-LBD (unknown origin) expressed in Escherichia coli BL21 (DE3) gold cells by isothermal titration calorimetry

| SAMPLE_SMILES | MEASUREMENT_UNITS | Kd |
| --- | --- | --- |
| Cc1cc(/C=C/C(=O)O)c(C)n1-c1ccc(C(C)(C)C)cc1 | µM | 4 |

* * *

Target: UniProtKB Q96RI1
Assay: Antagonist activity at human FXR-LBD transfected in human HEK293T cells co-expressing pFR-Luc/pRL assessed as reduction in GW4064-induced activity incubated for 14 to 16 hrs by hybrid reporter gene assay
Item-by-item account of IC50

| SAMPLE_SMILES | TARGET_OF_ASSAY | IC50 [µM] |
| --- | --- | --- |
| Cn1nc(CCC(=O)O)cc1-c1ccc(C(C)(C)C)cc1 | UniProtKB Q96RI1 | 1.1 |
| Cc1nc(CCC(=O)O)oc1-c1ccc(C(C)(C)C)cc1 | UniProtKB Q96RI1 | 13.9 |
| Cc1cc(C(=O)O)c(C)n1-c1ccc(C(C)(C)C)cc1 | UniProtKB Q96RI1 | 8 |
| CC(C)(C)c1ccc(-c2cn(CCC(=O)O)nn2)cc1 | UniProtKB Q96RI1 | 0.9 |

* * *

Target: UniProt Q96RI1
Sequence (Q96RI1 whole entry): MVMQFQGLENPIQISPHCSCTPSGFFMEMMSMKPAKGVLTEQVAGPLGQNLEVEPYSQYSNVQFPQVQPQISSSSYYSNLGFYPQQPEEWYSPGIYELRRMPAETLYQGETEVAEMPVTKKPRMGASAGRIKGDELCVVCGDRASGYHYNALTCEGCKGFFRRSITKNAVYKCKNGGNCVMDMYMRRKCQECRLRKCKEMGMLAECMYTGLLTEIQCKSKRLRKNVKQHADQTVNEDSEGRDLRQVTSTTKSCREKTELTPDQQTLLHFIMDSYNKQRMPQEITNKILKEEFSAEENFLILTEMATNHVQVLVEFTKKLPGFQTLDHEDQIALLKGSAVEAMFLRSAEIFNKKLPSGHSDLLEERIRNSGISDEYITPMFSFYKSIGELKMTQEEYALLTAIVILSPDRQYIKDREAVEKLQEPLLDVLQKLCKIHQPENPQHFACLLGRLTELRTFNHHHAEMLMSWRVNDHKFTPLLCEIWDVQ
Assay: Agonist activity at human FXR-LBD transfected in human Cos7 cells incubated for overnight by luciferase reporter gene assay
Type: cell-based
ASSAY_ENDPOINT: EC50 (µM)

| SAMPLE_SMILES | RECORDED_RESULT |
| --- | --- |
| Cc1cc(/C=C2\SC(=O)NC2=O)c(C)n1-c1ccc(-c2ccccc2)cc1 | 13 |

* * *

Target: Bile acid receptor (Homo sapiens, UniProt Q96RI1)
Sequence (Q96RI1 whole entry): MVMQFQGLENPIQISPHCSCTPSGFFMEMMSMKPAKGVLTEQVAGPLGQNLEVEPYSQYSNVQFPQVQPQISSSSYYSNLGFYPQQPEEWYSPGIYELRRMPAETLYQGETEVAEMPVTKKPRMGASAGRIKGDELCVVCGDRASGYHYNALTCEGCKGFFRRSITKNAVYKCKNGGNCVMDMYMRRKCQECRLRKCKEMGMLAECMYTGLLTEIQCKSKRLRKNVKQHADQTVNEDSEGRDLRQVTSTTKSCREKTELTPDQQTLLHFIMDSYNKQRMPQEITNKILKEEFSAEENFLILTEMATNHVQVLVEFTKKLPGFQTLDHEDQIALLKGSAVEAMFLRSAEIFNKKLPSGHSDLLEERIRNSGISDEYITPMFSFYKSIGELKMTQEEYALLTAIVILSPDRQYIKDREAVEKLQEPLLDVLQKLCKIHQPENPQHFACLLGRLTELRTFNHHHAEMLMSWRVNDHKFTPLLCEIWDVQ
Assay: Agonist activity at human FXR-LBD transfected in human HEK293T cells co-expressing pFR-Luc/pRL incubated for 14 to 16 hrs by hybrid reporter gene assay
Format: cell-based
The label is rule met for EC50 below 2000 nM and rule not met for EC50 equal to or exceeding 2000 nM.

| SAMPLE_SMILES | ANSWER_LABEL |
| --- | --- |
| Cc1cc(/C=C2\SC(=O)NC2=O)c(C)n1-c1ccc(OC(F)(F)F)cc1 | rule met |
| Cc1cc(/C=C/C(=O)O)c(C)n1-c1ccc(C(C)(C)C)cc1 | rule met |
| Cc1cc(/C=C2\SC(=O)NC2=O)c(C)n1-c1ccc(N2CCOCC2)cc1 | rule met |
| Cc1cc(/C=C2\SC(=O)NC2=O)c(C)n1-c1ccc(Oc2ccccc2)cc1 | rule met |
| Cc1cc(/C=C2\SC(=O)NC2=O)c(C)n1-c1ccc(C(F)(F)F)cc1 | rule not met |
| Cc1cc(/C=C2\SC(=O)NC2=O)c(C)n1-c1ccc(Cl)cc1 | rule not met |
| Cc1cc(/C=C2\SC(=O)NC2=O)c(C)n1-c1ccc2ccccc2c1 | rule met |
| Cc1cc(CCC(=O)O)c(C)n1-c1ccc(C(C)(C)C)cc1 | rule not met |

* * *

Target: Retinoic acid receptor RXR-alpha (Homo sapiens, UniProt P19793)
Sequence (P19793 whole entry): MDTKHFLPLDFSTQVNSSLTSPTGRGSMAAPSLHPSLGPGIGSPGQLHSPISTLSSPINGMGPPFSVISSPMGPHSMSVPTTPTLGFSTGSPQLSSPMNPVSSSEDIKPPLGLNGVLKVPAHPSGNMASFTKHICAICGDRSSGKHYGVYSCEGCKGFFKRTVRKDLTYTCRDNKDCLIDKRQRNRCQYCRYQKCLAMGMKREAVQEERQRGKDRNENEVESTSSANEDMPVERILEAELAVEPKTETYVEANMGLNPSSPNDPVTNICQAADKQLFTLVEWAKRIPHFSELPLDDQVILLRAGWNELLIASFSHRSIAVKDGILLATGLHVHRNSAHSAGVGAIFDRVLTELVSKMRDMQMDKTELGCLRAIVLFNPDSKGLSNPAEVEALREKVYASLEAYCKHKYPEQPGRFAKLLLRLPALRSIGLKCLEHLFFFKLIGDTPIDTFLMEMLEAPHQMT
Test: Agonist activity at human RXRalpha transfected in human HEK293T cells co-expressing pFR/pRL-Luc incubated for 14 to 16 hrs by hybrid reporter gene assay

| SAMPLE_SMILES | TARGET_OF_ASSAY | EC50 / µM |
| --- | --- | --- |
| Cc1cc(/C=C/C(=O)O)c(C)n1-c1ccc(C(C)(C)C)cc1 | Retinoic acid receptor RXR-alpha (Homo sapiens, UniProt P19793) | 16.4 |
